// data source = ChEMBL document CHEMBL5518215

IC50 at 8 h values, listed per item
assay: Cytotoxicity against human HEK-293T cells assessed as cell survival rate measured after 8 hrs by MTT assay; format: toxicity, cell-based

# substance, IC50 at 8 h
measured = [
    ("H-GKLWLKGLKLWLKGGKLWLKG-NH2", "47.2 µM"),
    ("H-LKLWLKGGKLWLKGGKLWLKG-NH2", "> 64 µM"),
    ("H-GKLWLKAGKLWLKGGKLWLKG-NH2", "> 64 µM"),
    ("H-FKLWLKGGKLWLKGGKLWLKG-NH2", "> 64 µM"),
    ("H-GKLWLKGGKLWLKAGKLWLKG-NH2", "> 64 µM"),
    ("H-GKLWLKGIKLWLKGGKLWLKG-NH2", "33.5 µM"),
    ("H-GKLWLKGCKLWLKGGKLWLKG-NH2", "> 64 µM"),
    ("H-GKLWLKGAKLWLKGGKLWLKG-NH2", "> 64 µM"),
    ("H-GKLWLKGGKLWLKGGKLWLKG-NH2", "> 64 µM"),
    ("H-MKLWLKGGKLWLKGGKLWLKG-NH2", "> 64 µM"),
    ("H-GKLWLKGWKLWLKGGKLWLKG-NH2", "61.9 µM"),
    ("H-IKLWLKGGKLWLKGGKLWLKG-NH2", "> 64 µM"),
    ("H-AKLWLKGGKLWLKGGKLWLKG-NH2", "> 64 µM"),
    ("H-WKLWLKGGKLWLKGGKLWLKG-NH2", "> 64 µM"),
    ("H-GKLWLKGFKLWLKGGKLWLKG-NH2", "36.6 µM"),
    ("H-GKLWLKGVKLWLKGGKLWLKG-NH2", "> 64 µM"),
    ("H-GKLWLKGMKLWLKGGKLWLKG-NH2", "> 64 µM"),
    ("H-CKLWLKGGKLWLKGGKLWLKG-NH2", "> 64 µM"),
    ("H-GKLWLKGGKLWLKGGKLWLKA-NH2", "> 64 µM"),
    ("H-GKLWLKGGKLWLKGAKLWLKG-NH2", "> 64 µM"),
    ("H-VKLWLKGGKLWLKGGKLWLKG-NH2", "> 64 µM"),
]

----------
system: Erythrocyte; assay: Hemolytic activity in human RBC at effective concentration measured after 1 hr by microplate reader analysis; type: toxicity, cell-based
recorded-endpoint: HC10

# substance, recorded-value
measured = [
    ("H-CKLWLKGGKLWLKGGKLWLKG-NH2", "> 128 µM"),
    ("H-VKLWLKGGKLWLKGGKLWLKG-NH2", "> 128 µM"),
    ("H-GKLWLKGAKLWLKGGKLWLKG-NH2", "> 128 µM"),
    ("H-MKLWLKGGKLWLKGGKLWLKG-NH2", "128 µM"),
    ("H-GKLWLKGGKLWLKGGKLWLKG-NH2", "> 128 µM"),
    ("H-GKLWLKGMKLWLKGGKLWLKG-NH2", "128 µM"),
    ("H-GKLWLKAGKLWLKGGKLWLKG-NH2", "> 128 µM"),
]

----------
system: Acinetobacter baumannii; assay: Antimicrobial activity against Acinetobacter baumannii 1.6769 assessed as absence bacterial growth measured after 18 to 24 hrs incubation by NCCLS method; type: functional; conditions: time 18-24 hrs
Please assign false (0) whenever MIC is at or above 4 µM, and true (1) whenever it is below.

# substance, assigned-category
data = [
    ("H-AKLWLKAAKLWLKAAKLWLKA-NH2", "true (1)"),
    ("H-GKLWLKGCKLWLKGGKLWLKG-NH2", "false (0)"),
    ("H-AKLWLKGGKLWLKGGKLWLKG-NH2", "false (0)"),
    ("H-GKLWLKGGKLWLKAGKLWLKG-NH2", "true (1)"),
    ("H-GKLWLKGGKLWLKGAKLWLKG-NH2", "true (1)"),
    ("H-CKLWLKGGKLWLKGGKLWLKG-NH2", "false (0)"),
    ("H-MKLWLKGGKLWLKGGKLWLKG-NH2", "false (0)"),
    ("H-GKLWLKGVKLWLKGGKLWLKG-NH2", "true (1)"),
    ("H-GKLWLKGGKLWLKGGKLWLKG-NH2", "false (0)"),
    ("H-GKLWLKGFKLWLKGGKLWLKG-NH2", "true (1)"),
    ("H-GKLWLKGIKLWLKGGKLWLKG-NH2", "true (1)"),
    ("H-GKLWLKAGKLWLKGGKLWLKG-NH2", "true (1)"),
    ("H-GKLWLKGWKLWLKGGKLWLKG-NH2", "true (1)"),
    ("H-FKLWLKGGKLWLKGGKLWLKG-NH2", "false (0)"),
    ("H-LKLWLKGGKLWLKGGKLWLKG-NH2", "false (0)"),
    ("H-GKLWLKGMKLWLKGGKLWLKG-NH2", "true (1)"),
    ("H-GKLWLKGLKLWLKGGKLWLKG-NH2", "true (1)"),
    ("H-IKLWLKGGKLWLKGGKLWLKG-NH2", "false (0)"),
]

----------
MBC values, listed per item
tested on: Staphylococcus aureus; assay: Antimicrobial activity against Methicillin-resistant Staphylococcus aureus 43300 assessed as bacterial killing measured after 16 hrs incubation; format: functional

# substance, MBC
measured = [
    ("H-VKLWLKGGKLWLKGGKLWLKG-NH2", "> 32 µM"),
    ("H-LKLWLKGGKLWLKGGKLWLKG-NH2", "> 32 µM"),
    ("H-WKLWLKGGKLWLKGGKLWLKG-NH2", "> 32 µM"),
    ("H-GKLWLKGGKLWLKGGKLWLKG-NH2", "> 32 µM"),
    ("H-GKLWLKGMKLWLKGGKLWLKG-NH2", "2 µM"),
    ("H-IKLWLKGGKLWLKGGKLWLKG-NH2", "> 32 µM"),
    ("H-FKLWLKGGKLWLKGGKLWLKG-NH2", "> 32 µM"),
    ("H-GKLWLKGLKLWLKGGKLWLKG-NH2", "2 µM"),
]

----------
system: Pseudomonas aeruginosa; experiment: Antimicrobial activity against Pseudomonas aeruginosa 27853 assessed as absence bacterial growth measured after 18 to 24 hrs incubation by NCCLS method; assay type: functional; conditions: time 18-24 hrs
MIC values, listed per item

# substance, tested-system, MIC
records = [
    ("H-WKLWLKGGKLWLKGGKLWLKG-NH2", "Pseudomonas aeruginosa", "8 µM"),
    ("H-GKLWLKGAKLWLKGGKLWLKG-NH2", "Pseudomonas aeruginosa", "4 µM"),
    ("H-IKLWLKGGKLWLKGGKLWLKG-NH2", "Pseudomonas aeruginosa", "8 µM"),
    ("H-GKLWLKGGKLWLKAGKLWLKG-NH2", "Pseudomonas aeruginosa", "4 µM"),
    ("H-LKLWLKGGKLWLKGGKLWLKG-NH2", "Pseudomonas aeruginosa", "32 µM"),
    ("H-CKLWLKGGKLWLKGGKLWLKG-NH2", "Pseudomonas aeruginosa", "> 32 µM"),
    ("H-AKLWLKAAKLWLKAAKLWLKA-NH2", "Pseudomonas aeruginosa", "2 µM"),
    ("H-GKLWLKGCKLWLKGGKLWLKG-NH2", "Pseudomonas aeruginosa", "32 µM"),
    ("H-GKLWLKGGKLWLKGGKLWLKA-NH2", "Pseudomonas aeruginosa", "4 µM"),
    ("H-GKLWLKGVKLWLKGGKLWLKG-NH2", "Pseudomonas aeruginosa", "4 µM"),
    ("H-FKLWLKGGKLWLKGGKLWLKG-NH2", "Pseudomonas aeruginosa", "32 µM"),
    ("H-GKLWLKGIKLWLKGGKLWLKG-NH2", "Pseudomonas aeruginosa", "4 µM"),
    ("H-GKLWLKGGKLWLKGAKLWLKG-NH2", "Pseudomonas aeruginosa", "4 µM"),
    ("H-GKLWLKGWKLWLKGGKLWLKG-NH2", "Pseudomonas aeruginosa", "2 µM"),
]

----------
MIC values, listed per item
tested on: Escherichia coli; test: Antimicrobial activity against Escherichia coli 25922 assessed as absence bacterial growth measured after 18 to 24 hrs incubation in presence of KCl by NCCLS method; format: functional; conditions: time 18-24 hrs

# substance, qualifier-symbol, MIC (µM)
measured = [
    ("H-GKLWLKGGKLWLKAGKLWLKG-NH2", "=", 2),
    ("H-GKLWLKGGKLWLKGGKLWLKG-NH2", "=", 4),
    ("H-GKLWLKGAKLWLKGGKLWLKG-NH2", "=", 2),
    ("H-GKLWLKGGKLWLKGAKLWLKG-NH2", "=", 2),
    ("H-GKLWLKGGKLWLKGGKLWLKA-NH2", "=", 2),
    ("H-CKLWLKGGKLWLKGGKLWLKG-NH2", ">", 32),
    ("H-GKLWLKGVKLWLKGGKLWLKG-NH2", "=", 1),
]
